# testedOn: T1, PACE4, P29122
# T1 chain: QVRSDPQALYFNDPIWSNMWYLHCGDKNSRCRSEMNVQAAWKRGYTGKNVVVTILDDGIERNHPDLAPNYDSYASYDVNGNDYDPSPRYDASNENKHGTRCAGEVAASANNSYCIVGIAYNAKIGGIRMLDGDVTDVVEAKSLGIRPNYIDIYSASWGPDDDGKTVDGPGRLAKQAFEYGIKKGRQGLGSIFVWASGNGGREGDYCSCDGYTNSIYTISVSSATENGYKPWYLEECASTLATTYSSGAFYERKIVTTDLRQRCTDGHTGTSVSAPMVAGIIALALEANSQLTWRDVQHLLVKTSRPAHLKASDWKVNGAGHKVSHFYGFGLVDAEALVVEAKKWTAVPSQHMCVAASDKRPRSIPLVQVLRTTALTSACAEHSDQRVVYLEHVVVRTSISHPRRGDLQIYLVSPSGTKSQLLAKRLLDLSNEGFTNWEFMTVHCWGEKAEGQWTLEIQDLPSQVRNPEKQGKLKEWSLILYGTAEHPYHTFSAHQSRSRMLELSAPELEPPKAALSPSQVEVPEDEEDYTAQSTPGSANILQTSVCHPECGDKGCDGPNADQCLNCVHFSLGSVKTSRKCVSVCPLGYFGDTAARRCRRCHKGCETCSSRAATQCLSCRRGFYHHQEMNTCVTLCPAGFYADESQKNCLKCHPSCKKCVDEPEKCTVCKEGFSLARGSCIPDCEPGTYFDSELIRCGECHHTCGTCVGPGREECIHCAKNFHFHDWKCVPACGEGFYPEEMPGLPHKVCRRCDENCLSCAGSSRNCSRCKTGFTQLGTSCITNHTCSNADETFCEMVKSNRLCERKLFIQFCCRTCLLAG
# conditionsUsed: modification not given
measureName: pKi
// pKi here means minus log10 of the molar concentration (mol/L)

Consider RRRRRRR [Hepta-L-arginine] . Its measured pKi is 6.62
